- System: MCF7
- test method notes: Estrogenic activity in human MCF7 cells assessed as drug level causing stimulation of cell proliferation equivalent to 100 pM estradiol by alamar blue assay
- Type: functional
assay metric: log10 Activity (log10 of the value in µM)
Lab note - Activity converted to log10 from values in µM.

Here are 5 compounds together with their reported answers.
Give log10 Activity for the following compound: COc1c(O)cc2occ(-c3ccc(O)c(O)c3)c(=O)c2c1O [IRILIN D]
1.10

Give a short answer stating reported log10 Activity for O=C(c1ccc(O)cc1)c1c(O)cc(O)cc1O [IRIFLOPHENONE] .
0.83

Kindly indicate its recorded log10 Activity. Item: O=c1c(-c2ccc(O)cc2)coc2cc(O)cc(O)c12 [GENISTEIN]
-1.89

Tell me measured log10 Activity for O=C(Cc1cc(O)cc(O)c1)c1ccc(O)cc1 [BELAMPHENONE] please.
1.11

For the compound COc1c(O)cc2occ(-c3ccc(O)cc3)c(=O)c2c1O [TECTORIGENIN] , give its measured log10 Activity value.
0.00

As a next step, examine the compound that follows.
For the compound COc1c(O[C@@H]2O[C@H](CO)[C@@H](O)[C@H](O)[C@H]2O)cc2occ(-c3ccc(O)cc3)c(=O)c2c1O [TECTORIDIN] , report log10 Activity.
-1.10

###

- System: T47D
- test method notes: Estrogenic activity in human T47D cells assessed as drug level causing stimulation of cell proliferation equivalent to 10 pM estradiol by alamar blue assay
- Type: functional
Quick reference: Activity of the listed items.
Please respond with the number in µM and leave the unit unwritten.

Please report Activity for the following compound: O=c1c(-c2ccc(O)cc2)coc2cc(O)cc(O)c12
0.001

Others:
Consider the compound Oc1ccc(/C=C/c2cc(O)cc(O)c2)cc1 . State its measured Activity.
0.03

Give the measured Activity for O=C(c1ccc(O)cc1)c1c(O)cc(O)cc1O
4.9

Look up Activity of COc1c(O[C@@H]2O[C@H](CO)[C@@H](O)[C@H](O)[C@H]2O)cc2occ(-c3ccc(O)cc3)c(=O)c2c1O and report it.
0.2

Hello, please tell me recorded Activity for this one: O=C(Cc1cc(O)cc(O)c1)c1ccc(O)cc1
0.09

Return value of Activity for input COc1c(O)cc2occ(-c3ccc(O)cc3)c(=O)c2c1O , no commentary.
0.04
